System: 6-phosphofructokinase (Trypanosoma brucei)
Assay: Confirmatory Assay to Find Inhibitors of T. brucei phosphofructokinase: High ATP
Conditions: T. brucei PFK, Kinase-Glo luminescence; series mostly up to 57.5 µM
Inconclusive results are not listed. Activity calls are given as the source filed them. Calls come from the whole dose curve; as a rule, active = well fitted inhibition curve with a large enough effect; inconclusive = small, poorly fitted or top-dose-only effect; inactive = flat fitted curve, though single readings scatter.
The reply should name one outcome from true (1) = active, false (0) = inactive

Q: Which outcome was assigned to Cc1cc(NS(=O)(=O)c2ccc(NC(=O)Cc3ccc(Cl)c(Cl)c3)cc2)no1 in this test?
Result: true (1)

Q: Fill in: this test's call for Cc1cc(N(C)S(=O)(=O)c2ccc(NC(=O)Cc3ccc(Cl)c(Cl)c3)cc2)no1 is ___
Result: true (1)

Q: Which outcome was entered for the molecule Cc1cc(NS(=O)(=O)c2ccc(NC(=O)Cc3ccc(Cl)c(C(F)(F)F)c3)cc2)no1 in this test?
Result: true (1)
